# Test system: 817829-284-R-J1-PDC complex spheroids, viability
# METHOD DESCRIPTION: Anticancer human tumor 817829-284-R-J1-PDC patient-derived colon adenocarcinoma cell line growth inhibition [GQUAD]
# CONDITION LABEL: second compound 10 µM; first compound 0.0316 µM; hits give low values
Recorded viability, T/C for the following compounds

COMPOUND: O=c1[nH]cc(F)c(=O)[nH]1 + Cc1[nH]c2ccc(F)cc2c1-c1nc2c3cccnc3c3ncccc3c2[nH]1
viability, T/C: 31.7%
//
COMPOUND: CC[C@@]1(O)C(=O)OCc2c1cc1n(c2=O)Cc2cc3c(CN(C)C)c(O)ccc3nc2-1 + CN(C)c1ccc(Nc2c3ccc(NC(=O)CCN4CCCC4)cc3nc3cc(NC(=O)CCN4CCCC4)ccc23)cc1
viability, T/C: 65.8%
//
COMPOUND: COc1cc(C2c3cc4c(cc3C(OC3OC5COC(C)OC5C(O)C3O)C3COC(=O)C23)OCO4)cc(OC)c1O (stereo unspecified) + Cc1cnc(CNC(=O)c2c(=O)c3ccc(N4CCCN(C)CC4)nc3n3c2sc2ccccc23)cn1
viability, T/C: 0.08%
//
COMPOUND: CC1COCCN1c1cc(C2(O)CC3CCC(C2)O3)c2cnn(-c3ccn[nH]3)c2n1 (stereo unspecified) + Cc1cnc(CNC(=O)c2c(=O)c3ccc(N4CCCN(C)CC4)nc3n3c2sc2ccccc23)cn1
viability, T/C: 0.05%
//
COMPOUND: Nc1ccn(C2OC(CO)C(O)C2(F)F)c(=O)n1 (stereo unspecified) + Cc1cnc(CNC(=O)c2c(=O)c3ccc(N4CCCN(C)CC4)nc3n3c2sc2ccccc23)cn1
viability, T/C: 0.09%
//
COMPOUND: Cc1cccc(N(C)C(=O)C2C(O)CCN2c2nc(C)cc(C(F)(F)F)c2C#N)c1 (stereo unspecified) + Cc1[nH]c2ccc(F)cc2c1-c1nc2c3cccnc3c3ncccc3c2[nH]1
viability, T/C: 83.3%

* * *

# System: 817829-284-R-J1-PDC complex spheroids, viability
# METHOD DESCRIPTION: Anticancer human tumor 817829-284-R-J1-PDC cell line growth inhibition [GQUAD];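 note: spheroids exposed to agents for 7 days before readout; percent viability relative to DMSO vehicle control taken as 100%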
# CONDITION LABEL: second compound 0.1 µM; first compound 0.1 µM; hits give low values
Recorded viability, T/C for the following compounds
REPORTED ENDPOINT: viability, T/C

COMPOUND: CC1COCCN1c1cc(C2(O)CC3CCC(C2)O3)c2cnn(-c3ccn[nH]3)c2n1 (stereo not given) + CN(C)c1ccc(Nc2c3ccc(NC(=O)CCN4CCCC4)cc3nc3cc(NC(=O)CCN4CCCC4)ccc23)cc1
ENDPOINT RESULT: 15.1%
//
COMPOUND: COc1ccc([C@@H](O)c2cc(-c3ncnc4cc(N5CCOCC5)ccc34)c(F)cc2Cl)nn1 + Cc1[nH]c2ccc(F)cc2c1-c1nc2c3cccnc3c3ncccc3c2[nH]1
ENDPOINT RESULT: 111%
//
COMPOUND: CC(C)(O)C1CCC(Nc2ccc3ncc(-c4cccc(C(F)(F)F)c4)n3n2)CC1 (stereo not given) + Cc1[nH]c2ccc(F)cc2c1-c1nc2c3cccnc3c3ncccc3c2[nH]1
ENDPOINT RESULT: 110%
//
COMPOUND: CC1COCCN1c1cc(C2(S(C)(=N)=O)CC2)nc(-c2ccnc3[nH]ccc23)n1 (stereo not given) + Cc1[nH]c2ccc(F)cc2c1-c1nc2c3cccnc3c3ncccc3c2[nH]1
ENDPOINT RESULT: 107%
//
COMPOUND: CCCS(=O)(=O)Nc1ccc(F)c(C(=O)c2c[nH]c3ncc(-c4ccc(Cl)cc4)cc23)c1F + Cc1cnc(CNC(=O)c2c(=O)c3ccc(N4CCCN(C)CC4)nc3n3c2sc2ccccc23)cn1
ENDPOINT RESULT: 21.9%

* * *

# Tested on: 817829-284-R-J1-PDC complex spheroids, viability
# METHOD DESCRIPTION: Anticancer human tumor 817829-284-R-J1-PDC cell line growth inhibition [GQUAD];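 note: spheroids exposed to agents for 7 days before readout; percent viability relative to DMSO vehicle control taken as 100%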
# CONDITION LABEL: second compound 0.1 µM; first compound 3.16 µM; hits give low values

COMPOUND: CC(=O)O[C@H]1C(=O)[C@@]2(C)[C@H]([C@H](OC(=O)c3ccccc3)[C@]3(O)C[C@H](OC(=O)[C@H](O)[C@@H](NC(=O)c4ccccc4)c4ccccc4)C(C)=C1C3(C)C)[C@]1(OC(C)=O)CO[C@@H]1C[C@@H]2O + Cc1[nH]c2ccc(F)cc2c1-c1nc2c3cccnc3c3ncccc3c2[nH]1
ASSAYED TARGET: 817829-284-R-J1-PDC complex spheroids, viability
viability, T/C / %: 4.86
--
COMPOUND: C=CCn1c(=O)c2cnc(Nc3ccc(N4CCN(C)CC4)cc3)nc2n1-c1cccc(C(C)(C)O)n1 + CN(C)c1ccc(Nc2c3ccc(NC(=O)CCN4CCCC4)cc3nc3cc(NC(=O)CCN4CCCC4)ccc23)cc1
ASSAYED TARGET: 817829-284-R-J1-PDC complex spheroids, viability
viability, T/C / %: 7.3

* * *

Recorded viability, T/C for the following molecules
# System: 817829-284-R-J1-PDC complex spheroids, viability
# METHOD DESCRIPTION: Anticancer human tumor 817829-284-R-J1-PDC cell line growth inhibition [GQUAD];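 note: spheroids exposed to agents for 7 days before readout; percent viability relative to DMSO vehicle control taken as 100%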
# CONDITION LABEL: second compound 0.1 µM; first compound 3.16 µM; hits give low values

MOLECULE: Nc1ccn(C2OC(CO)C(O)C2(F)F)c(=O)n1 (centres undefined) + Cc1[nH]c2ccc(F)cc2c1-c1nc2c3cccnc3c3ncccc3c2[nH]1
viability, T/C [%]: 4.94

MOLECULE: CC1COCCN1c1cc(C2(O)CC3CCC(C2)O3)c2cnn(-c3ccn[nH]3)c2n1 (centres undefined) + Cc1[nH]c2ccc(F)cc2c1-c1nc2c3cccnc3c3ncccc3c2[nH]1
viability, T/C [%]: 5.1

MOLECULE: CC(C)n1c(=O)n(C)c2cnc3cc(F)c(-c4ccc(OCCCN5CCCCC5)nc4)cc3c21 + Cc1[nH]c2ccc(F)cc2c1-c1nc2c3cccnc3c3ncccc3c2[nH]1
viability, T/C [%]: 107

MOLECULE: O=c1[nH]cc(F)c(=O)[nH]1 + Cc1[nH]c2ccc(F)cc2c1-c1nc2c3cccnc3c3ncccc3c2[nH]1
viability, T/C [%]: 40.5

MOLECULE: COc1ncnc(C2CC2)c1-c1ncc2cnn(Cc3ccc(-c4nc(C(F)(F)F)cn4C(C)C)cc3)c2n1 + CN(C)c1ccc(Nc2c3ccc(NC(=O)CCN4CCCC4)cc3nc3cc(NC(=O)CCN4CCCC4)ccc23)cc1
viability, T/C [%]: 111

MOLECULE: CC(C)n1c(=O)n(C)c2cnc3cc(F)c(-c4ccc(OCCCN5CCCCC5)nc4)cc3c21 + Cc1cnc(CNC(=O)c2c(=O)c3ccc(N4CCCN(C)CC4)nc3n3c2sc2ccccc23)cn1
viability, T/C [%]: 22.9

MOLECULE: COc1cccc2c1C(=O)c1c(O)c3c(c(O)c1C2=O)CC(O)(C(=O)CO)CC3OC1CC(N)C(O)C(C)O1 (centres undefined) + Cc1cnc(CNC(=O)c2c(=O)c3ccc(N4CCCN(C)CC4)nc3n3c2sc2ccccc23)cn1
viability, T/C [%]: 0.27

MOLECULE: CC1COCCN1c1cc(C2(S(C)(=N)=O)CC2)nc(-c2ccnc3[nH]ccc23)n1 (centres undefined) + Cc1cnc(CNC(=O)c2c(=O)c3ccc(N4CCCN(C)CC4)nc3n3c2sc2ccccc23)cn1
viability, T/C [%]: 11.4

MOLECULE: COc1ncnc(C2CC2)c1-c1ncc2cnn(Cc3ccc(-c4nc(C(F)(F)F)cn4C(C)C)cc3)c2n1 + Cc1[nH]c2ccc(F)cc2c1-c1nc2c3cccnc3c3ncccc3c2[nH]1
viability, T/C [%]: 108

MOLECULE: O=C(c1cc(Cc2n[nH]c(=O)c3ccccc23)ccc1F)N1CCN(C(=O)C2CC2)CC1 + Cc1cnc(CNC(=O)c2c(=O)c3ccc(N4CCCN(C)CC4)nc3n3c2sc2ccccc23)cn1
viability, T/C [%]: 33.8

MOLECULE: CCCS(=O)(=O)Nc1ccc(F)c(C(=O)c2c[nH]c3ncc(-c4ccc(Cl)cc4)cc23)c1F + Cc1[nH]c2ccc(F)cc2c1-c1nc2c3cccnc3c3ncccc3c2[nH]1
viability, T/C [%]: 74.1

MOLECULE: CC(C)(O)C1CCC(Nc2ccc3ncc(-c4cccc(C(F)(F)F)c4)n3n2)CC1 (centres undefined) + Cc1cnc(CNC(=O)c2c(=O)c3ccc(N4CCCN(C)CC4)nc3n3c2sc2ccccc23)cn1
viability, T/C [%]: 7.21

MOLECULE: C#Cc1c(F)ccc2cc(O)cc(-c3ncc4c(N5CC6CCC(C5)N6)nc(OCC56CCCN5CC(F)C6)nc4c3F)c12 (centres undefined) + Cc1[nH]c2ccc(F)cc2c1-c1nc2c3cccnc3c3ncccc3c2[nH]1
viability, T/C [%]: 91.1

MOLECULE: C=CC(=O)N1CCN(c2nc(=O)n(-c3c(C)ccnc3C(C)C)c3nc(-c4c(O)cccc4F)c(F)cc23)C(C)C1 (centres undefined) + CN(C)c1ccc(Nc2c3ccc(NC(=O)CCN4CCCC4)cc3nc3cc(NC(=O)CCN4CCCC4)ccc23)cc1
viability, T/C [%]: 106

MOLECULE: COc1cccc2c1C(=O)c1c(O)c3c(c(O)c1C2=O)CC(O)(C(=O)CO)CC3OC1CC(N)C(O)C(C)O1 (centres undefined) + CN(C)c1ccc(Nc2c3ccc(NC(=O)CCN4CCCC4)cc3nc3cc(NC(=O)CCN4CCCC4)ccc23)cc1
viability, T/C [%]: 0.47

MOLECULE: C=CC(=O)N1CCN(c2nc(=O)n(-c3c(C)ccnc3C(C)C)c3nc(-c4c(O)cccc4F)c(F)cc23)C(C)C1 (centres undefined) + Cc1cnc(CNC(=O)c2c(=O)c3ccc(N4CCCN(C)CC4)nc3n3c2sc2ccccc23)cn1
viability, T/C [%]: 29.9

MOLECULE: CC1COCCN1c1cc(-c2ccnn2C)c2ccnc(-c3ccn[nH]3)c2n1 (centres undefined) + Cc1[nH]c2ccc(F)cc2c1-c1nc2c3cccnc3c3ncccc3c2[nH]1
viability, T/C [%]: 5.94

MOLECULE: CC1COCCN1c1cc(C2(S(C)(=N)=O)CC2)nc(-c2ccnc3[nH]ccc23)n1 (centres undefined) + Cc1[nH]c2ccc(F)cc2c1-c1nc2c3cccnc3c3ncccc3c2[nH]1
viability, T/C [%]: 10.7

MOLECULE: COc1ccc([C@@H](O)c2cc(-c3ncnc4cc(N5CCOCC5)ccc34)c(F)cc2Cl)nn1 + Cc1cnc(CNC(=O)c2c(=O)c3ccc(N4CCCN(C)CC4)nc3n3c2sc2ccccc23)cn1
viability, T/C [%]: 24.2

MOLECULE: CC1COCCN1c1cc(C2(O)CC3CCC(C2)O3)c2cnn(-c3ccn[nH]3)c2n1 (centres undefined) + Cc1cnc(CNC(=O)c2c(=O)c3ccc(N4CCCN(C)CC4)nc3n3c2sc2ccccc23)cn1
viability, T/C [%]: 4.94

MOLECULE: O=C(NO)c1cnc(N2CCN(S(=O)(=O)c3ccc4ccccc4c3)CC2)nc1 + Cc1cnc(CNC(=O)c2c(=O)c3ccc(N4CCCN(C)CC4)nc3n3c2sc2ccccc23)cn1
viability, T/C [%]: 0.02

MOLECULE: CC(C)(O)C1CCC(Nc2ccc3ncc(-c4cccc(C(F)(F)F)c4)n3n2)CC1 (centres undefined) + CN(C)c1ccc(Nc2c3ccc(NC(=O)CCN4CCCC4)cc3nc3cc(NC(=O)CCN4CCCC4)ccc23)cc1
viability, T/C [%]: 39.9

MOLECULE: CC(C)(O)C1CCC(Nc2ccc3ncc(-c4cccc(C(F)(F)F)c4)n3n2)CC1 (centres undefined) + Cc1[nH]c2ccc(F)cc2c1-c1nc2c3cccnc3c3ncccc3c2[nH]1
viability, T/C [%]: 25.5

MOLECULE: Cc1cccc(N(C)C(=O)C2C(O)CCN2c2nc(C)cc(C(F)(F)F)c2C#N)c1 (centres undefined) + CN(C)c1ccc(Nc2c3ccc(NC(=O)CCN4CCCC4)cc3nc3cc(NC(=O)CCN4CCCC4)ccc23)cc1
viability, T/C [%]: 93.3
